Taken from paper PMC7794939.

target-or-system: Human recombinant MAGL (Homo sapiens)
Construct: purchased Cayman Chemical (Ann Arbor, MI, USA)
Sequence (Q99685 whole entry): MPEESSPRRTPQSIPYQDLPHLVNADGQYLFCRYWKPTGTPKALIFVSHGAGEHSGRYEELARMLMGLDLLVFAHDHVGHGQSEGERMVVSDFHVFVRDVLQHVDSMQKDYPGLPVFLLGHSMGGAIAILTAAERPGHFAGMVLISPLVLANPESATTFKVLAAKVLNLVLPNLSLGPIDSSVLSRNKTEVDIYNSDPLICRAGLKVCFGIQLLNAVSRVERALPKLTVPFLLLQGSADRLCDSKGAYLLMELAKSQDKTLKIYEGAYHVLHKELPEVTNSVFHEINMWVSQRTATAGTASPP
assay-procedure: MAGL enzyme inhibition assay (4-NPA substrate, absorbance 405 nm)
Format: biochemical
experimental-setup: 30 min, rt, pH 7.2
test-readout: IC50 (µM)

{"compound": "CC(C)c1ccc(OCC(=O)Nc2ccc(-c3nc4ccccc4c(=O)o3)cc2)cc1 [VS3]", "IC50, µM": 79.4}
{"compound": "O=C(c1ccc(Cl)cc1)C1CCN(C(=O)c2cccc(O)c2)CC1 [Compound 17b, reference compound]", "IC50, µM": 0.9}

(A) O=C(c1ccco1)N1CCN(C2CC(=O)N(c3cccc(Cl)c3)C2=O)CC1 (stereo not shown) [VS4]
(B) O=C(c1ccco1)N1CCN(C2=CC(=O)N(c3cccc(Cl)c3)C2=O)CC1 [VS2]
Prompt line: For the two items A and B , which reports the higher IC50 value? Write down the label attached to your selection.
Response line: A
